Where these numbers come from: ChEMBL document CHEMBL5543096

experiment: Cmax in Sprague-Dawley rat at 0.3 mg/kg,ip measured at 0.05 to 24 hrs of post administration by LC-MS/MS analysis; format: ADME, organism-based; settings: in vivo, time 0.05-24 hrs
READOUT KIND: Cmax (ng/mL)
Express the result in ng/mL but write the number alone.

Value of Cmax reported for the compound `CN1[C@@H]2C[C@@H](OC(=O)[C@@](F)(CO)c3ccccc3)C[C@H]1[C@@H]1O[C@@H]12` is 41.9

====

test: Half life in Sprague-Dawley rat at 0.3 mg/kg,ip measured at 0.05 to 24 hrs of post administration by LC-MS/MS analysis; assay type: ADME, organism-based; settings: in vivo, time 0.05-24 hrs
READOUT KIND: half-life (min)
Express the result in min but write the number alone.

Value of half-life reported for the molecule `CN1[C@@H]2C[C@@H](OC(=O)[C@@](F)(CO)c3ccccc3)C[C@H]1[C@@H]1O[C@@H]12` is 16.6

====

experiment: MRT (0 to last) in Sprague-Dawley rat at 0.3 mg/kg,ip measured at 0.05 to 24 hrs of post administration by LC-MS/MS analysis; type: ADME, organism-based; details: in vivo, time 0.05-24 hrs
READOUT KIND: MRT last (min)
Express the result in min but write the number alone.

Value of MRT last reported for the molecule `CN1[C@@H]2C[C@@H](OC(=O)[C@@](F)(CO)c3ccccc3)C[C@H]1[C@@H]1O[C@@H]12` is 23

====

test: AUC (0 to last) in Sprague-Dawley rat at 0.3 mg/kg,ip measured at 0.05 to 24 hrs of post administration by LC-MS/MS analysis; type: ADME, organism-based; details: in vivo, time 0.05-24 hrs
READOUT KIND: AUC(0-t) (ng·h/mL)
Express the result in ng·h/mL but write the number alone.

Value of AUC(0-t) reported for the compound `CN1[C@@H]2C[C@@H](OC(=O)[C@@](F)(CO)c3ccccc3)C[C@H]1[C@@H]1O[C@@H]12` is 24.2

====

assay: MRT (0 to last) in Sprague-Dawley rat at 0.3 mg/kg,iv measured at 0.05 to 24 hrs of post administration by LC-MS/MS analysis; format: ADME, organism-based; conditions: in vivo, time 0.05-24 hrs
READOUT KIND: MRT last (min)
Express the result in min but write the number alone.

Value of MRT last reported for the compound `CN1[C@@H]2C[C@@H](OC(=O)[C@@](F)(CO)c3ccccc3)C[C@H]1[C@@H]1O[C@@H]12` is 13.8

====

biological target: Muscarinic acetylcholine receptor M1 (Homo sapiens, UniProt P11229); assay: Antagonist activity at human muscarinic M1 receptor expressed in CHO cells incubated for 10 mins in presence of acetylcholine by inositol 1-phosphate accumulation assay
Sequence (P11229 whole entry): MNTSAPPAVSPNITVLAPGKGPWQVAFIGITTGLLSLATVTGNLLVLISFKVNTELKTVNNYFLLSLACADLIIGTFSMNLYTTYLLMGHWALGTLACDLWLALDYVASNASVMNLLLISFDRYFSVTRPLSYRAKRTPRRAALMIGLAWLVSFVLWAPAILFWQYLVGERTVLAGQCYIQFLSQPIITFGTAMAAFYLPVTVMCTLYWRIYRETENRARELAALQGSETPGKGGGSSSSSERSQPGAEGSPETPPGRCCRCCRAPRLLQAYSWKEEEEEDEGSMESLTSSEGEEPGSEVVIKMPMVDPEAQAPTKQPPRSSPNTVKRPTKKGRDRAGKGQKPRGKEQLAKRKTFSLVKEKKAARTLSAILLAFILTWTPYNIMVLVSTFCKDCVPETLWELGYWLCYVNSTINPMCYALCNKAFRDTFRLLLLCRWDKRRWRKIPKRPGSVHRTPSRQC
READOUT KIND: pIC50
# pIC50 is unitless: minus log10 of the molar concentration; print number only

Value of pIC50 reported for the compound `CN1[C@@H]2C[C@@H](OC(=O)[C@@](F)(CO)c3ccccc3)C[C@H]1[C@@H]1O[C@@H]12` is 7.84

====

test: MRT (0 to infinity) in Sprague-Dawley rat at 0.3 mg/kg,ip measured at 0.05 to 24 hrs of post administration by LC-MS/MS analysis; format: ADME, organism-based; settings: in vivo, time 0.05-24 hrs
READOUT KIND: MRT inf
Write the numeric value and follow it with the unit.

Value of MRT inf reported for the compound `CN1[C@@H]2C[C@@H](OC(=O)[C@@](F)(CO)c3ccccc3)C[C@H]1[C@@H]1O[C@@H]12` is 27.3 min
